Measured Kd accompanies every entry in the list below.
# study.system: T1, human transferrin receptor (human, UniProt P02786 89-760, limits assumed)
# T1 construct: also called TfR Human
# T1 sequence (P02786 89-760 limits assumed): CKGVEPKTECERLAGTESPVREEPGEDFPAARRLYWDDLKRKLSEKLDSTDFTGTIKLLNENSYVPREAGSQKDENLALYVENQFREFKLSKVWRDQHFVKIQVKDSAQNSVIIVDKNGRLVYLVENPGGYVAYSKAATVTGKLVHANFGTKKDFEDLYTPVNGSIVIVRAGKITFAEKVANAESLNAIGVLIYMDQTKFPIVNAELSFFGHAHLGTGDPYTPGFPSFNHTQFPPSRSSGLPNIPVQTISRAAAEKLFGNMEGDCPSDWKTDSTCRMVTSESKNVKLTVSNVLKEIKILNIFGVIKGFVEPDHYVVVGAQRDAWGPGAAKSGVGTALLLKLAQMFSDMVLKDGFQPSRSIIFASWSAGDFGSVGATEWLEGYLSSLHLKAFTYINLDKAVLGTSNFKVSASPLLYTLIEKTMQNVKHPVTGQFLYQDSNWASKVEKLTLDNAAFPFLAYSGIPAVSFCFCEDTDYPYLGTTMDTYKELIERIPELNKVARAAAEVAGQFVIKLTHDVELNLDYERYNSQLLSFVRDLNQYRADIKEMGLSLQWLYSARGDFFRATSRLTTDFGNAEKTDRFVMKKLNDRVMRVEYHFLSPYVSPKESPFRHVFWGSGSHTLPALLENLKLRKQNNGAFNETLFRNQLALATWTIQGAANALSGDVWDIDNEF
# assay.procedure: MST (Monolith NT.115), His-tag-dye-labelled protein, TfR titrated

binder	uom	Kd
DE-gp100-huHF (other, One monomer is given; the particle is a self-assembled 24-mer. In the MST assay the His tag carried RED-tris-NTA dye non-covalently., also called huHF-DE-gp100; gp100-huHF (DE loop)) MHHHHHHLETTASTSQVRQNYHQDSEAAINRQINLELYASYVYLSMSYYFDRDDVALKNFAKYFLHQSHEEREHAEKLMKLQNQRGGRIFLQDIKKPDCDDWESGLNAMECALHLEKNVNQSLLELHKLATDKNDPHLCDFIETHYLNEQVKAIKELGDHVTNLRKMGAPEGSKVPRNQDWLEFSGLAEYLFDKHTLGDSDNES	nM	9.78
CD-AH1-huHF (other, also called huHF-CD loop-AH1; CD-loop-AH1) HHHHHHMTTASTSQVRQNYHQDSEAAINRQINLELYASYVYLSMSYYFDRDDVALKNFAKYFLHQSHEEREHAEKLMKLQNQRGGRIFLQDIKKPDCDDWESGLNAMECALHLEKNVNQSLLELHKLATDKNDSPSYVYHQFPHLCDFIETHYLNEQVKAIKELGDHVTNLRKMGAPESGLAEYLFDKHTLGDSDNES	nM	3.45
BC-gp100-huHF (other, also called gp100-huHF (BC loop); TSA insertion site BC, gp100) HHHHHHMTTASTSQVRQNYHQDSEAAINRQINLELYASYVYLSMSYYFDRDDVALKNFAKYFLHQSHEEREHAEKLMKLQNQRGGRIFLQDIKKPDCDDKVPRNQDWLWESGLNAMECALHLEKNVNQSLLELHKLATDKNDPHLCDFIETHYLNEQVKAIKELGDHVTNLRKMGAPESGLAEYLFDKHTLGDSDNES	nM	14
BC-AH1-huHF (other, also called AH1-huHF (BC loop); TSA insertion site BC, AH1) HHHHHHMTTASTSQVRQNYHQDSEAAINRQINLELYASYVYLSMSYYFDRDDVALKNFAKYFLHQSHEEREHAEKLMKLQNQRGGRIFLQDIKKPDCDDSPSYVYHQFWESGLNAMECALHLEKNVNQSLLELHKLATDKNDPHLCDFIETHYLNEQVKAIKELGDHVTNLRKMGAPESGLAEYLFDKHTLGDSDNES	nM	107
